Parameter TGI: see the listing below.
System: SK-OV-3 ovarian
Experiment: NCI tumour cell line growth inhibition, 48 h

Item: Nc1ncn([C@H]2CC(O)[C@@H](CO)S2)c(=O)n1 (some centres not stated) | TGI: > 100 µM

Quick note, TGI for O=C1CCC(c2ccccc2)=NN1c1nc2ccccc2s1 landed at 79.6 µM

// Cc1cccc2c(=O)c3c(O)cc(O)cc3n(C)c12 : TGI value = > 100 µM

// field: TGI; key: CCc1ccc2c(c1)C(=O)c1c-2n(CCCN)c(=O)c2cc(OC)c(OC)cc12 ; value = 3.58 µM

The compound O=C(NNC(=O)c1ccco1)c1ccco1 showed TGI equal to > 100 µM

---
# TGI (compound: O=[N+]([O-])c1ccccc1N=Nc1c(O)[nH]c2c(Cl)cccc12 ) is 54.7 µM

Measured TGI of O=c1c(I)c[nH]cc1I : > 100 µM

Record summary for C/C(=C\C(=O)Nc1ccc2n[nH]nc2c1)Nc1ccc2n[nH]nc2c1 : reported TGI = > 100 µM

TGI reported for this compound CC(C)=CCC[C@@H](C)C1=C(O)C(N[C@H](C)c2ccccc2)=C(C)C(=O)C1=O : 45.4 µM

In plain terms, CC1=NN(c2nc(N)nc(CO)n2)C(C)(C)C1 has a documented TGI of > 100 µM

compound CSc1c(C(C)=O)c(O)n(-c2ccc(C)cc2)c(=O)c1C#N , TGI observed: > 100 µM

Kindly note the recorded TGI for COc1cccc(/C=C2\N=C(c3ccccc3)OC2=O)c1 , which is > 100 µM

###

Test system: DMS 114 small cell lung
Experiment: NCI tumour cell line growth inhibition, 48 h
quantity: TGI

For record Cc1ccc(C)c2c1C1CCCCC3(OCCCO3)C21O (stereo not given) the listed TGI is > 100 µM

Entry under test: C/C=C/C=C/c1cc2cc3c(c(O)c2c(=O)[nH]1)C1(CC3)C(O)=c2c(=O)c3c(=O)cc(OC)c(=O)c=3c(=O)c2=C1O (stereo not given) . Its TGI was 4.83 µM

Briefly, TGI measured for COC(=O)c1c(C(=O)OC)c(-c2ccccc2)n(-c2ccccc2)c(=O)c1-c1ccccc1 : > 100 µM

Item: C=CCNC(=S)NNC(=O)c1c(C)nc2sccn12 | TGI: > 100 µM

Looking up Nc1nc(Cl)c2ncn(CCCC(c3ccccc3)P(=O)(O)O)c2n1 (stereo not given) , I found its TGI recorded as > 100 µM

###

Tested on: NCI-H23 lung
Assay: NCI tumour cell line growth inhibition, 48 h; in the data active = GI50 below about 0.43 µM; inactive = the rest
Parameter call: string, one of 1.0 for active, 0.0 for inactive

Use these answered entries as a reference point.
Recorded call for Cc1ccc(-c2nc(NCCOCCOCCN)nc(N3CCN(c4ccccn4)CC3)n2)cc1 ? 0.0

Just curious, what result did COc1ccc(-c2nsc3c2NC(=O)CC3c2ccsc2)cc1 (stereo unspecified) get here? 1.0

What did the test return for CC1(C)CC(O)CC(C)(C)N1O ? 0.0

I would be grateful if you could indicate the recorded call for Clc1ccc2c(NCCNc3nc(N4CCOCC4)nc4ccccc34)ccnc2c1 . 0.0

Write down the call the test reported for this compound. Item: C=CCC(N[C@@H](CO)c1ccccc1)c1ccc2ccccc2n1 (stereo partly specified) 0.0

Moving on to the next compound.
Dear all, I need the recorded test outcome for CC(=O)c1cc2c(N)c(C(=O)Nc3cccc4ccccc34)sc2nc1C , thank you. 0.0

###

System: LOX IMVI melanoma
Assay: NCI tumour cell line growth inhibition, 48 h
quantity: TGI

Recorded result, COc1ccc2nc3ccccc3c(NCCNCCO)c2c1 , TGI: 3.75 µM

For reference, reported TGI for CC(=O)Oc1ccc2cc(Oc3cc(Cl)c(Cl)cc3Cl)c(=O)oc2c1 stands at 28.9 µM

// field: TGI; key: COC(=O)Cc1cc(=O)n2c3ccccc3n(C)c2c1C#N ; value = > 100 µM

# TGI (compound: COc1cccc(C2CC(=O)Nc3c2c(C)nn3-c2nc3ccccc3[nH]2)c1OC (stereo not given) ) is 12.9 µM

// TGI value for CC1(C)CC(O)CC(C)(C)N1O : > 100 µM

###

Listed below: TGI values for each entry.
Tested on: CCRF-CEM leukemia
Assay: NCI tumour cell line growth inhibition, 48 h

Some compounds with known TGI results, for comparison:
Field TGI (CCRF-CEM leukemia), entry CC(=O)CCC1(c2ccccc2)OC(=O)C(C#N)=C1c1ccccc1 (configuration not stated) : > 100 µM

Bench note, CCRF-CEM leukemia: CN(C)C(=O)C(F)(F)C(c1ccccc1)C1C(=O)N(C)C(=O)N(C)C1=O (configuration not stated) , TGI reads > 100 µM

Now let's try a different one.
The reported TGI value, CCRF-CEM leukemia, for CC(C)=C[C@@H]1C[C@H](C)[C@H]2CC[C@H](C)c3c(O)c(OC4OC(C)C(O)C(O)C4O)c(C)c1c32 (some centres not stated) reads 26.3 µM

###

Tested on: A498 renal
Assay: NCI tumour cell line growth inhibition, 48 h
quantity: GI50

Known results for compounds:
// assay A498 renal, entry Cc1ccc(-c2nc(NCCOCCOCCN)nc(N3CCN(c4ccccn4)CC3)n2)cc1 , GI50 value = 5.94 µM

# COc1cc(N=Nc2cc(Cc3ccc(N(C)C)cc3)c(N)cc2N(C)C)c2ncccc2c1 with A498 renal: GI50 is 0.809 µM

Lab note: compound [O]=[Sn]([CH]1CCCCC1)[CH]1CCCCC1 tested on A498 renal; recorded GI50 was 0.167 µM

I looked up CCCN1C(=O)/C(=C/c2ccc(SC(F)(F)F)cc2)SC1=Nc1ccc(OC)cc1 and its GI50 for A498 renal was 11 µM

The compound CN1C2C=CC(=O)C1C1C(=O)N(c3ccccc3)C(=O)C12 (centres undefined) , tested on A498 renal, showed GI50 of 15.6 µM

Entry O=C(/C=C/c1ccc(O)c(O)c1)N1CCN(c2ccc(Cl)cc2)CC1 : GI50 on A498 renal = 2.5 µM

CCCCCCCCCCCC/C=C\CC[C@@H](O)[C@H](O)CC[C@H](O)[C@@H]1CC[C@@H](CCCCCCCC2=C[C@H](C)OC2=O)O1 tested on A498 renal gave GI50: 16.4 µM

Entry COc1cc(C(=O)c2cnc(-c3c[nH]c4cccc(C)c34)[nH]2)cc(OC)c1OC , tested on A498 renal, has a reported GI50 of 0.00176 µM

Now consider a different compound.
Query COc1cc(C2CC(c3ccccc3)=NN2C=O)ccc1Oc1ccnc2cc(Cl)ccc12 (centres undefined) on A498 renal; GI50 returned: 6.9 µM

###

The entries below are paired with their reported TGI.
System: SN12C renal
Test: NCI tumour cell line growth inhibition, 48 h

Observe how each entry below is paired with its result.
The compound CCOP1(=O)CC(C)=C(Cl)C(OC)C1 (stereo not given) , when measured on SN12C renal, yielded TGI of > 100 µM

Recorded TGI for O=P(CN1CCOCC1)(c1ccccc1)c1ccccc1 on SN12C renal was > 100 µM

Others:
Hey, SN12C renal data for Nc1nc(SCc2ccccc2CCl)c2[nH]cnc2n1 : TGI came out at 71.7 µM

Record O/N=C\c1c2c(cc3c1CCC3)CCC2 / SN12C renal, TGI recorded as > 100 µM

Entry CSc1c(C(C)=O)c(O)n(-c2ccc(C)cc2)c(=O)c1C#N , SN12C renal data, TGI value: > 100 µM

Item CCn1c(-c2nonc2N)nc2ccccc21 ; assay system SN12C renal; TGI reported as > 25 µM

The compound NCCCN(CCCCN(CCCN)CCCc1ccccc1)CCCc1ccccc1 on SN12C renal: TGI was 16.9 µM

Short answer on SN12C renal for O=CN1CCN(c2ccc3ccc(=O)[nH]c3n2)CC1 , TGI: > 100 µM

Item: Cc1cc(Cl)ccc1N=C1NC(=O)C(CC(=O)Nc2cccc(Cl)c2)S1 (stereo not given) | System: SN12C renal | TGI: > 100 µM

###

Test system: UACC-62 melanoma
Test: NCI tumour cell line growth inhibition, 48 h
Documented TGI across a set of compounds
Note: unit µM is implicit; provide only the numeric part.

// field: TGI; key: Cc1ccc(-c2nc(NCCOCCOCCN)nc(N3CCN(c4ccccn4)CC3)n2)cc1 ; value = 13.7

***
Entry Cc1c(C#N)c2nnn(-c3cccc(Cl)c3)c(=O)n2c1-c1ccccc1 , TGI reported as 36

###

Test system: HCT-116 colon
Assay: NCI tumour cell line growth inhibition, 48 h
quantity: TGI (µM)
Write the number in µM without appending the unit.

Recorded TGI, per entry:
Short answer on HCT-116 colon for COc1cc(/C=C(\C)[N+](=O)[O-])cc(OC)c1 , TGI: 31.2

For CCOC(=O)Cc1c(C(=O)OCC)[n+](=O)c2cc(Cl)c(Cl)cc2n1[O-] on HCT-116 colon, measured TGI was 7.27

Next:
TGI on HCT-116 colon for S=c1ssnc1-c1cc2ccccc2o1 is 36.8
